- System Name: HLA-A*29:02
- Method Summary: IEDB peptide-MHC binding, purified MHC/competitive/fluorescence; filed as Kd, often an IC50 or EC50 that approximates it; bounds were set here for any values at or beyond the usual limits of such assays
- Condition Details: source organism: Homo sapiens
pKd: −log10 of the molar value.
Property Name: pKd

Query: Recorded pKd of YYWPRPRRY , please.
Response: ≥ 10.00

---

- System Name: HLA-A*02:01
- Method Summary: IEDB peptide-MHC binding, purified MHC/competitive/fluorescence; filed as Kd, often an IC50 or EC50 that approximates it; bounds were set here for any values at or beyond the usual limits of such assays
- Condition Details: source organism: Araucaria virus
pKd: −log10 of the molar value.
Property Name: pKd

Query: Item under review: LYVAGVPEL . Reported pKd?
Response: ≤ 4.70

---

- System Name: HLA-C*15:02
- Method Summary: IEDB peptide-MHC binding, purified MHC/direct/fluorescence; filed as Kd, often an IC50 or EC50 that approximates it; bounds were set here for any values at or beyond the usual limits of such assays
- Condition Details: source organism: Yellow fever virus
Property Name: pKd
Formally, pKd is defined as -log10 of the concentration c, with c in mol/L.

Query: Record lookup: for HLA-C*15:02, what pKd belongs to KTNDRKWCF ?
Response: 6.07

---

- System Name: HLA-B*18:01
- Method Summary: IEDB peptide-MHC binding, purified MHC/direct/fluorescence; filed as Kd, often an IC50 or EC50 that approximates it; bounds were set here for any values at or beyond the usual limits of such assays
- Condition Details: source organism: Vibrio cholerae
Property Name: Kd

Query: Could you share which Kd value was measured for YLKKGRLSL ?
Response: ≥ 20 µM

---

- System Name: HLA-B*15:01
- Method Summary: IEDB peptide-MHC binding, purified MHC/competitive/fluorescence; filed as Kd, often an IC50 or EC50 that approximates it; bounds were set here for any values at or beyond the usual limits of such assays
- Condition Details: source organism: Orthohantavirus tulaense
Property Name: Kd

Query: Request the reported Kd associated with ILMARYMSK
Response: ≥ 20 µM

---

- System Name: HLA-A*69:01
- Method Summary: IEDB peptide-MHC binding, purified MHC/direct/fluorescence; filed as Kd, often an IC50 or EC50 that approximates it; bounds were set here for any values at or beyond the usual limits of such assays
- Condition Details: source organism: Bacillus cytotoxicus
Property Name: Kd (nM)
# number only, unit nM dropped from output

Query: Quick one: Kd for ALSGFYYVQ ?
Response: 2360

---

- System Name: HLA-B*15:17
- Method Summary: IEDB peptide-MHC binding, purified MHC/competitive/fluorescence; filed as Kd, often an IC50 or EC50 that approximates it; bounds were set here for any values at or beyond the usual limits of such assays
- Condition Details: source organism: Vibrio antiquarius
Property Name: pKd
Interpret pKd as the negative base-10 log of the concentration measured in mol/L.

Query: I am curious: what pKd value has been reported for LVAPHMAMM ?
Response: 6.62

---

- System Name: HLA-B*40:01
- Method Summary: IEDB peptide-MHC binding, purified MHC/competitive/radioactivity; filed as Kd, often an IC50 or EC50 that approximates it; bounds were set here for any values at or beyond the usual limits of such assays
- Condition Details: source organism: Lassa virus Josiah
Property Name: Kd

Query: Looking for the measured Kd of REPTDLKQF , can you help?
Response: 2.88 µM

These measurements were taken from the Immune Epitope Database (IEDB).
